# test.method.notes: Toxicokinetic analysis of plasma drug levels (HPLC)
# Assay type: in vivo, dog
# applied.conditions: both sexes, beagle, im; week four; 6 mg kg^−1 daily i.m.; dog plasma; read-out: T max, w4
reported.endpoint: Tmax (min)
Your answer is read as min, so omit the unit and give the number.

Qu. Tell me the measured Tmax of CO[C@H]1O[C@@H]2O[C@@]3(C)CC[C@H]4[C@H](C)CC[C@@H]([C@H]1C)[C@@]24OO3 [ARM, artemether] , please.
Ans. 30

###

# test.method.notes: Toxicokinetic analysis of plasma drug levels (HPLC)
# Type: in vivo, dog
# applied.conditions: both sexes, beagle, dog, plasma, other: ART p.o., ARM i.m., 6 mg/kg, week 8; 6 mg kg^−1 daily; ART p.o., ARM i.m.; dog plasma; read-out: AUC8w
Measured AUC by item
I'd appreciate it if you included the unit after the number.

INSERT INTO measurements (molecule, endpoint_value) VALUES
  ('C[C@H]1[C@H](OC(=O)CCC(=O)O)O[C@@H]2O[C@@]3(C)CC[C@H]4[C@H](C)CC[C@@H]1[C@@]24OO3 [ART, artesunate]', '580 ng·h/mL');

Please turn your attention to the following entry.
Qu. Tell me the measured AUC of `CO[C@H]1O[C@@H]2O[C@@]3(C)CC[C@H]4[C@H](C)CC[C@@H]([C@H]1C)[C@@]24OO3` , please.
Ans. 10.9 ng·h/mL

###

Measured AUC by item
# test.method.notes: Toxicokinetic analysis of plasma drug levels (HPLC)
# Type: in vivo, dog
# applied.conditions: both sexes, beagle, dog, plasma, other: ART p.o., ARM i.m., 6 mg/kg, week four; 6 mg kg^−1 daily; ART p.o., ARM i.m.; dog plasma; read-out: AUC4w
# Procedure: The first day of treatment was regarded as day one in the study. […] Oral administration was performed about 2 h after feeding. ARM was administered by a bolus intramuscular infusion through a 25-gauge needle at a constant volume of 2 ml kg^−1 once a day into the gluteal and infraspinous muscles. Two dogs of each sex from each group were allowed to recover without further treatment for an additional 4 weeks. […]
I'd appreciate it if you included the unit after the number.

INSERT INTO measurements (compound, endpoint_value) VALUES
  ('C[C@H]1[C@H](OC(=O)CCC(=O)O)O[C@@H]2O[C@@]3(C)CC[C@H]4[C@H](C)CC[C@@H]1[C@@]24OO3 [ART, artesunate]', '1270 ng·h/mL');

Please turn your attention to the following entry.
Qu. Tell me the measured AUC of `CO[C@H]1O[C@@H]2O[C@@]3(C)CC[C@H]4[C@H](C)CC[C@@H]([C@H]1C)[C@@]24OO3` , please.
Ans. 739 ng·h/mL

###

# test.method.notes: Toxicokinetic analysis of plasma drug levels (HPLC)
# Assay type: in vivo, dog
# applied.conditions: both sexes, beagle, im; week four; 6 mg kg^−1 daily i.m.; dog plasma; read-out: C max, w4
# Experimental: The first day of treatment was regarded as day one in the study. […] Oral administration was performed about 2 h after feeding. ARM was administered by a bolus intramuscular infusion through a 25-gauge needle at a constant volume of 2 ml kg^−1 once a day into the gluteal and infraspinous muscles. Two dogs of each sex from each group were allowed to recover without further treatment for an additional 4 weeks. […]
reported.endpoint: Cmax (ng/mL)
Your answer is read as ng/mL, so omit the unit and give the number.

Qu. Tell me the measured Cmax of `CO[C@H]1O[C@@H]2O[C@@]3(C)CC[C@H]4[C@H](C)CC[C@@H]([C@H]1C)[C@@]24OO3` , please.
Ans. 219
